test: Times to onset, minimal and maximal, observed in the indexed observations. [column 'DELAI' in source]; details: human
Where a SMILES comes first, the peptide text is derived from it. Bridges are numbered along the chain shown (N, C = ends). [ ]: non-standard residue; d: D form. The star is where a group is joined. NMePhe(4-NMe2) = CN[C@@H](Cc1ccc(N(C)C)cc1)C(=O)O; Pip(4-oxo) = O=C1CCN[C@H](C(=O)O)C1; Picolinoyl(3-OH) = O=C(c1ncccc1O)*; Phg = N[C@H](C(=O)O)c1ccccc1; dAbu = CC[C@@H](N)C(=O)O
I'd be grateful if you could share measured Hepatotoxicity (time to onset) for these entries.

Examples with their reported Hepatotoxicity (time to onset) follow.
CC(C)c1cccc(C(C)C)c1O: 1 day - 4 weeks
NS(=O)(=O)c1cc2c(cc1Cl)NCNS2(=O)=O [HYDROCHLOROTHIAZIDE]: 17 days - 14 months
CCCC(C)(COC(N)=O)COC(N)=O [MEPROBAMATE]: 2 weeks - 6 months

# return Hepatotoxicity (time to onset) for each item in the list
1. CC[C@H]1NC(=O)[C@@H](NC(=O)c2ncccc2O)[C@@H](C)OC(=O)[C@H](c2ccccc2)NC(=O)[C@@H]2CC(=O)CCN2C(=O)[C@H](Cc2ccc(N(C)C)cc2)N(C)C(=O)[C@@H]2CCCN2C1=O [PRISTINAMYCIN 1A] ({Picolinoyl(3-OH)}-T[dAbu]P[NMePhe(4-NMe2)][Pip(4-oxo)][Phg]; ester 1-C)
2. CN1c2c(oc(=O)n(-c3ccccn3)c2=O)-c2ccccc2S1(=O)=O
3. C[C@H]1[C@H](OC(=O)CCC(=O)O)O[C@@H]2O[C@@]3(C)CC[C@H]4[C@H](C)CC[C@@H]1[C@@]24OO3 [ARTESUNATE]
4. O=C(O)COC(=O)Cc1ccccc1Nc1c(Cl)cccc1Cl
5. CC(C)(C)c1ccc(C(O)CCCN2CCC(C(O)(c3ccccc3)c3ccccc3)CC2)cc1 (stereo not drawn)
6. CC1=C(CC(=O)O)c2cc(F)ccc2/C1=C\c1ccc([S+](C)[O-])cc1 (stereo not drawn)
7. NCc1ccccc1CC(=O)N[C@@H]1C(=O)N2C(C(=O)O)=C(CSc3nnnn3CC(=O)O)CS[C@H]12 [CEFORANIDE]
8. Clc1ccc2nsnc2c1NC1=NCCN1

a:
1. 1.5 months
2. 10 days - 7 weeks
3. 48 days
4. 1 week - 3 weeks
5. 4 weeks - 5 months
6. 1 day - 1.5 years
7. 5 days - 3 weeks
8. 6 days - 3.5 months

# return Hepatotoxicity (time to onset) for each item in the list
1. CC(C(=O)O)c1cccc(Oc2ccccc2)c1 (stereo not drawn)
2. CC(C)NNC(=O)COc1ccc(Cl)cc1 [IPROCLOZIDE]
3. COc1cc2oc(=O)c(C)c(C)c2cc1OCCCN1CCN(c2ccccc2OC)CC1
4. O=NN(CCCl)C(=O)NCCCl
5. CO[C@H]1/C=C/O[C@@]2(C)Oc3c(C)c(O)c4c(O)c(cc(O)c4c3C2=O)NC(=O)/C(C)=C\C=C\[C@H](C)[C@H](O)[C@@H](C)[C@@H](O)[C@@H](C)[C@H](OC(C)=O)[C@@H]1C
6. O=C1c2ccccc2C(=O)C1c1ccc(F)cc1

a:
["1 week - 7 weeks", "1 week - 1 month", "2 weeks", "1 week - 6 weeks", "6 hours - 13 days", "1 week - 3 months"]

# return Hepatotoxicity (time to onset) for each item in the list
1. CC(O)(CS(=O)(=O)c1ccc(F)cc1)C(=O)Nc1ccc(C#N)c(C(F)(F)F)c1 (stereo not drawn) [BICALUTAMIDE]
2. CN1CCN2c3ccccc3Cc3ccccc3C2C1 (stereo not drawn)
3. O=C1c2c(O)ccc(O)c2C(=O)c2c(NCCNCCO)ccc(NCCNCCO)c21
4. CN1CCN(CCCN2c3ccccc3Sc3ccc(C(F)(F)F)cc32)CC1
5. CC(C)c1nc(CN(C)C(=O)N[C@H](C(=O)N[C@@H](Cc2ccccc2)C[C@H](O)[C@H](Cc2ccccc2)NC(=O)OCc2cncs2)C(C)C)cs1
6. NC(=O)OCC(COC(N)=O)c1ccccc1 [FELBAMATE]

a:
["2 days", "1 day - 1.8 years", "4 days - 24 days", "2 weeks - 8 years", "< 1 day - 6 months", "13 days - 6 months"]
